// data source = patent US10085998B2

experiment: physchem; details: pH 7, aqueous buffer, thermodynamic from solid
Where a name gives a salt, the structure may show the parent alone.
parameter: solubility (mg/mL)
All answers are understood in mg/mL, so give the number only.

Fill in solubility for record CC1=NS(=O)(=O)c2cc(Cl)ccc2N1 [potassium salt of diazoxide]
14.4

----------
test: Moisture sorption analysis; format: physicochemical; conditions: 25° C.; 60% RH
Where a name gives a salt, the structure may show the parent alone.
parameter: Water absorbed at 60% RH

// fetch Water absorbed at 60% RH given entry CC1=Nc2ccc(Cl)cc2S(=O)(=O)[N-]1.[Na+] [sodium salt of diazoxide]
1.2 wt %

Quickly give me recorded Water absorbed at 60% RH for CC1=Nc2ccc(Cl)cc2S(=O)(=O)[N-]1.C[N+](C)(C)CCO [Form A]
2.4 wt %

Next:
// Input: CC1=NS(=O)(=O)c2cc(Cl)ccc2N1 [potassium salt of diazoxide] . Output its Water absorbed at 60% RH only.
5.4 wt %

Identify Water absorbed at 60% RH associated with the molecule CC1=Nc2ccc(Cl)cc2S(=O)(=O)[N-]1.C[N+](C)(C)CCO [Form B]
7.4 wt %
